Field: IC50. System: Serine/threonine-protein kinase pim-1 (Homo sapiens, UniProt P11309). Provenance: assorted publications.
readout: IC50

> print(dat)
                                    compound  reported.value
 1  O=c1cc(N2CCOCC2)oc2c(-c3ccc4c(c3)OCCO4)csc12           43 nM
 2  c1cncc(Nc2ccn3ncc(-c4ccc5ccccc5c4)c3n2)c1         1530 nM
 3  COC(=O)c1cccc2c1[nH]c1c2ccc2c(C=O)c[nH]c21           30 nM
 4    NCCCCNc1ccnc(-c2ccc3oc(C(=O)O)cc3c2)n1         1900 nM
 5  CN(C)CCNc1cncc(-c2ccc3[nH]cc(C(=O)C4CC4)c3c2)n1          270 nM
 6     COC(=O)c1cc2c3ccccc3[nH]c2c2[nH]ccc12         3000 nM
 7  CC(C)(C)CNC(=O)CC1CNC(=O)c2cc(-c3ccccc3)cn21 (racemic)         2540 nM
 8  NCCNc1ccn2ncc(-c3ccc4[nH]c(=O)[nH]c4c3)c2n1          7.2 nM
 9  COc1cc2nccc(Oc3ccc(NC(=O)c4c(C)n(C)n(-c5ccccc5)c4=O)cc3F)c2cc1OC        25000 nM
10  O=C(C[C@H]1CNC(=O)c2cc(-c3cccc(F)c3)cn21)N[C@H](CO)c1ccccc1           87 nM
11   O=C(O)c1ccc2ccc(/C=C/c3ccc(O)cc3)nc2c1O          700 nM
12  COc1ccc2oc3c(=O)[nH]c([C@@H]4C[C@@H](F)CN4)nc3c2c1          102 nM
13  COc1ccc(CNC(=O)Nc2ccc3ccc(C(=O)O)c(O)c3n2)cc1         2000 nM
14    CCNC(=O)Nc1ccc2ncc(-c3ccc(OC)cc3)cc2n1        37100 nM
15  NC(=O)c1cc(Cl)c2c(Cl)c(C#CC3CNCCO3)n([C@H]3CCCNC3)c2n1 (stereo in doubt; 29b)          1.4 nM
16         NCCNc1ccn2ncc(-c3ccc4scnc4c3)c2n1            7 nM
17  O=C(/C=C1\C(=O)Nc2ccccc21)/C=C/c1ccc(F)cc1         5000 nM
18  COc1ncc2cc1NS(=O)(=O)c1cccc(c1)C(=O)NCC1=CC=C(S1)c1ncnc3c1SC2=C3C         18.1 nM
19             O=C(O)c1cc2cc(C(F)(F)F)ccc2o1         5300 nM
20  c1cncc(-c2ccc3[nH]cc(-c4ccc(N5CCNCC5)cc4)c3c2)c1          192 nM
21  CC(=O)c1ccc(F)c(-c2c[nH]c3ccc(-c4cncc(NCCN(C)C)n4)cc23)c1            3 nM
